Test system: OVCAR-5 complex spheroids with HUVEC/MSC, viability, % test/control
TEST_SUMMARY: Anticancer human tumor OVCAR-5 cell line growth inhibition [AhR];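 further: spheroids exposed to compounds for 7 days; 100% = DMSO vehicle control wells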
MEASUREMENT_CONDITIONS: second compound 0.316 µM; first compound 0.0316 µM; stronger effect = lower value

{"columns": ["COMPOUND", "viability, T/C (%)"],
 "data": [
  ["O=C(C=Cc1cccc(S(=O)(=O)Nc2ccccc2)c1)NO + CC(CO)NC(=O)c1cc(-c2ccc(Cl)cc2)nn(-c2cnn(C)c2)c1=O", 101],
  ["Nc1ccn(C2OC(CO)C(O)C2(F)F)c(=O)n1 (configuration not stated) + CC(CO)NC(=O)c1cc(-c2ccc(Cl)cc2)nn(-c2cnn(C)c2)c1=O", 32.9],
  ["CC[C@@]1(O)C(=O)OCc2c1cc1n(c2=O)Cc2cc3c(CN(C)C)c(O)ccc3nc2-1 + Cc1ccccc1N=Nc1ccc(NC(=O)c2ccnn2C)c(C)c1", 36.5],
  ["CC1(C)CCC(CN2CCN(c3ccc(C(=O)NS(=O)(=O)c4ccc(NCC5CCOCC5)c([N+](=O)[O-])c4)c(Oc4cnc5[nH]ccc5c4)c3)CC2)=C(c2ccc(Cl)cc2)C1 + Cc1cncc(-c2nc(NCCc3c[nH]c4ccccc34)c3ncn(C(C)C)c3n2)c1", 101],
  ["CC(C)c1c(-c2ccccc2)nc2c(C#N)c[nH]n2c1=O + Cc1ccccc1N=Nc1ccc(NC(=O)c2ccnn2C)c(C)c1", 105],
  ["Nc1ncn(C2CC(O)C(CO)O2)c(=O)n1 (configuration not stated) + Cc1ccccc1N=Nc1ccc(NC(=O)c2ccnn2C)c(C)c1", 94.3],
  ["O=C(c1cc(Cc2n[nH]c(=O)c3ccccc23)ccc1F)N1CCN(C(=O)C2CC2)CC1 + Cc1cncc(-c2nc(NCCc3c[nH]c4ccccc34)c3ncn(C(C)C)c3n2)c1", 93.9],
  ["COc1cc(C2c3cc4c(cc3C(OC3OC5COC(C)OC5C(O)C3O)C3COC(=O)C23)OCO4)cc(OC)c1O (configuration not stated) + Cc1ccccc1N=Nc1ccc(NC(=O)c2ccnn2C)c(C)c1", 114],
  ["Cn1ncnc1C1c2n[nH]c(=O)c3cc(F)cc(c23)NC1c1ccc(F)cc1 (configuration not stated) + Cc1ccccc1N=Nc1ccc(NC(=O)c2ccnn2C)c(C)c1", 96.6],
  ["CC1COCCN1c1cc(C2(S(C)(=N)=O)CC2)nc(-c2ccnc3[nH]ccc23)n1 (configuration not stated) + Cc1cncc(-c2nc(NCCc3c[nH]c4ccccc34)c3ncn(C(C)C)c3n2)c1", 99.6],
  ["Nc1ncn(C2CC(O)C(CO)O2)c(=O)n1 (configuration not stated) + CC(CO)NC(=O)c1cc(-c2ccc(Cl)cc2)nn(-c2cnn(C)c2)c1=O", 99],
  ["O=C(c1cc(Cc2n[nH]c(=O)c3ccccc23)ccc1F)N1CCN(C(=O)C2CC2)CC1 + Cc1ccccc1N=Nc1ccc(NC(=O)c2ccnn2C)c(C)c1", 107]
]}
